system: CCRIS mutagenicity, Ames/micronucleus/aberration tests; assay: CCRIS mutagenicity studies; conditions: End Point: IN VITRO CHROMOSOMAL ABERRATIONS; Test System: CHO-LB CELLS; Metabolic Activation: NONE
The source made the active and inactive calls. How the calls were made is not given here.
Give one outcome, nothing more. List: active, inactive

Hello, I am checking results. What call was entered for O=S1(=O)CC=CC1 ? inactive

Hello, I am checking results. What call was entered for ClC(Cl)(Cl)Cl ? inactive

Hello, I am checking results. What call was entered for O=c1n(CC2CO2)c(=O)n(CC2CO2)c(=O)n1CC1CO1 (centres undefined) ? active

Hello, I am checking results. What call was entered for CCC#N ? inactive
